- Test system: Nilaparvata lugens
- runDescription: Insecticidal activity against imidacloprid-resistant Nilaparvata lugens (brown planthopper) assessed as drug concentration required to induce mortality per pest
- Type: functional
measuredProperty: LC50
// unit must come after the numeric part

Consider the worked cases shown below.
smiles=O=[N+]([O-])C1=C2N(Cc3ccc(Cl)nc3)CCN2[C@H]2CCC[C@@H]1O2 measuredproperty=LC50 measured="18.9795 ng"
smiles=Cl.O=[N+]([O-])/C(=C\c1ccco1)C1=NCCN1Cc1ccc(Cl)nc1 measuredproperty=LC50 measured="0.7312 ng"
smiles=O=[N+]([O-])C1=C2N(Cc3ccc(Cl)nc3)CCN2[C@@H]2CC[C@H]1O2 measuredproperty=LC50 measured="0.4925 ng"

Input line: Entry under review: O=[N+]([O-])/N=C1\NCCN1Cc1ccc(Cl)nc1 . Reported LC50?
Output line: 22.1614 ng

###

- System: Aphis craccivora
- runDescription: Insecticidal activity against Aphis craccivora (cowpea aphid) assessed as mortality at 500 mg/L
- Type: functional
mortality at 500 µg/mL values by entry
Number only, in %; omit the unit.

Input line: What value of mortality at 500 µg/mL has been recorded for this entry: CCCN1CC([N+](=O)[O-])=C2N(Cc3ccc(Cl)nc3)C[C@H]3CCC[C@H]3N2C1 (relative stereo)
Output line: 30

Input line: Any idea what its mortality at 500 µg/mL is? The compound is CC(C)N1CC([N+](=O)[O-])=C2N(Cc3ccc(Cl)nc3)C[C@H]3CCC[C@H]3N2C1 (relative stereo)
Output line: 30

Input line: // mortality at 500 µg/mL lookup, key: CCN1CC([N+](=O)[O-])=C2N(Cc3ccc(Cl)nc3)C[C@H]3CCC[C@H]3N2C1 (relative stereo)
Output line: 30

Input line: GET /values?readout=mortality at 500 µg/mL&item= O=[N+]([O-])C1=C2N(Cc3ccc(Cl)nc3)CCN2[C@H]2CCC[C@@H]1O2
Output line: 87

Input line: Which mortality at 500 µg/mL is reported for this compound? CN1CC([N+](=O)[O-])=C2N(CC3COCO3)CCN2C1 (stereo not given)
Output line: 0
